pIC50: −log10 of the molar value.
The following molecules each carry a recorded pIC50 for Cholinesterase (Homo sapiens).
observable: pIC50

| mol-smiles | experimental-value |
| --- | --- |
| COc1cccc2cc(C(=O)NCCCCCCCNc3c4c(nc5ccccc35)CCCC4)oc12 | 8.13 |
| c1ccc2oc(CN(CCCCCCCNc3c4c(nc5ccccc35)CCC4)Cc3cc4ccccc4o3)cc2c1 | 7.89 |
| O=C(NCCCCCCCNc1c2c(nc3ccccc13)CCCCC2)c1cc2ccccc2o1 | 7.94 |
| O=C(NCCCCCCCNc1c2c(nc3ccccc13)CCCC2)c1cc2ccccc2o1 | 8.16 |
| COc1cccc2cc(C(=O)NCCCCCCNc3c4c(nc5ccccc35)CCCC4)oc12 | 7.99 |
| O=C(NCCCCCCNc1c2c(nc3ccccc13)CCC2)c1cc2ccccc2o1 | 7.80 |
| c1ccc2oc(CN(CCCCCCCNc3c4c(nc5ccccc35)CCCC4)Cc3cc4ccccc4o3)cc2c1 | 8.16 |
| c1ccc2oc(CN(CCCCCCNc3c4c(nc5ccccc35)CCC4)Cc3cc4ccccc4o3)cc2c1 | 8.05 |
| O=C(NCCCCCCNc1c2c(nc3ccccc13)CCCCC2)c1cc2ccccc2o1 | 7.97 |

---

Molecular target: Amyloid-beta precursor protein (Homo sapiens, UniProt P05067)
Sequence (P05067 whole entry): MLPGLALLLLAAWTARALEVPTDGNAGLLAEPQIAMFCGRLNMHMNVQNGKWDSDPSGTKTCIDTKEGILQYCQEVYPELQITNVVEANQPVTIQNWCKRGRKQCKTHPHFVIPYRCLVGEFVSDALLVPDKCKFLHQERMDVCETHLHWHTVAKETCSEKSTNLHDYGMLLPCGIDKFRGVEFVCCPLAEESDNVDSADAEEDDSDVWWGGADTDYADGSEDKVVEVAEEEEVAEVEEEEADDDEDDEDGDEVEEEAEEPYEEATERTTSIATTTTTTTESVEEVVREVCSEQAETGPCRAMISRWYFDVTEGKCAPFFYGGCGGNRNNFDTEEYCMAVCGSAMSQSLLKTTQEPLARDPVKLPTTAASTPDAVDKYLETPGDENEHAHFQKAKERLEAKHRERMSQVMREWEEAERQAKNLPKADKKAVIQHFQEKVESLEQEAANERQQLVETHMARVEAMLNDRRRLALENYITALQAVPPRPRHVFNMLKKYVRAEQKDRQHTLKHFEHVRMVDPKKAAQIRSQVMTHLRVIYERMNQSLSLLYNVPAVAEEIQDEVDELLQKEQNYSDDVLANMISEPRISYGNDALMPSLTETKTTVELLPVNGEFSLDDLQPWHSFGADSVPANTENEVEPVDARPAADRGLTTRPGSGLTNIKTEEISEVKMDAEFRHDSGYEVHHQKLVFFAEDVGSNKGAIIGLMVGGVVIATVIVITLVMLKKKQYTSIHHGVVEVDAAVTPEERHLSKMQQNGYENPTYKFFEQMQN
Conditions: at 10 µM
Description: Inhibition of HFIP pretreated Amyloid beta (1 to 42) (unknown origin) self-induced aggregation at 10 uM incubated for 24 hrs by Thioflavin T-based fluorometric assay
The threshold is inclusive: inhibition of exactly 40% counts as 1 (yes); values below receive 0 (no).

| mol-smiles | label-class |
| --- | --- |
| COc1cccc2cc(CNCCCCCCNc3c4c(nc5ccccc35)CCC4)oc12 | 1 (yes) |
| COc1cccc2cc(C(=O)NCCCCCCCNc3c4c(nc5ccccc35)CCCC4)oc12 | 1 (yes) |
| c1ccc2oc(CNCCCCCCNc3c4c(nc5ccccc35)CCC4)cc2c1 | 0 (no) |
| c1ccc2oc(CN(CCCCCCNc3c4c(nc5ccccc35)CCC4)Cc3cc4ccccc4o3)cc2c1 | 1 (yes) |
| COc1cccc2cc(CN(CCCCCCNc3c4c(nc5ccccc35)CCCCC4)Cc3cc4cccc(OC)c4o3)oc12 | 0 (no) |

The values you see were collected from ChEMBL document CHEMBL3751805.
